test: Bioavailability in rat; format: ADME, organism-based; conditions: in vivo
measurement label: bioavailability (%)
Express the result in % but write the number alone.

compound	recorded measurement
CCC1(c2cccc(OC(=O)c3ccccc3)c2)CCCCN(C)C1 (configuration not stated)	53.9

Consider the record given below.
Which bioavailability is listed for CCC1(c2cccc(OC(=O)c3c(C)cccc3N)c2)CCCCN(C)C1 (configuration not stated) ?
120

----------
assay: Relative bioavailability in stomach closed loop study in rats; Mean of 4 exp; format: ADME, organism-based; details: rat, in vivo; read-out: Relative Bioavailability
measurement label: bioavailability (%)
Give the value in % but do not write % after it.

Query: bioavailability; subject: CCC1(c2cccc(OC(=O)c3c(C)cccc3N)c2)CCCCN(C)C1.Cl (stereo unspecified)
65.4

----------
assay: Bioavailability in rat; type: ADME, organism-based; details: in vivo
measurement label: bioavailability (%)
Respond with the bare value in %.

GET /values?readout=bioavailability&item= CCC1(c2cccc(OC(=O)c3c(C)cccc3N)c2)CCCCN(C)C1 (stereo not drawn)
130

Look at this compound and give its reported bioavailability. CCC1(c2cccc(OC(=O)c3ccccc3)c2)CCCCN(C)C1 (stereo not drawn)
75.4

Record request: bioavailability value, item CCC1(c2cccc(OC(=O)c3ccccc3N)c2)CCCCN(C)C1 (stereo not drawn)
59.8

Origin of measurements: ChEMBL document CHEMBL1139557
